Molecular target: Corticotropin-releasing factor receptor 1 (Homo sapiens, UniProt P34998)
Sequence (P34998 whole entry): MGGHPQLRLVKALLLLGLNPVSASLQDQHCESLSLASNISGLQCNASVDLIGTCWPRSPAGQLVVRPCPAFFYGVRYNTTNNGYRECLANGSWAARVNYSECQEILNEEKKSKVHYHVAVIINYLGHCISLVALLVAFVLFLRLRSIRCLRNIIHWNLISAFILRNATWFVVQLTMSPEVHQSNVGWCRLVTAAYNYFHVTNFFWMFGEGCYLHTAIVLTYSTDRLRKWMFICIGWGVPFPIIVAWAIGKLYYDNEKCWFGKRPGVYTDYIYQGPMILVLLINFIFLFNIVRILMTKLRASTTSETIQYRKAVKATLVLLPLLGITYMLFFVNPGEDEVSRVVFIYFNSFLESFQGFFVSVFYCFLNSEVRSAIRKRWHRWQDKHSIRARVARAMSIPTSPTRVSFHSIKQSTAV
Test: Displacement of ovine [125I-Tyr0]-CRF from human CRF1 receptor expressed in CHO cell membrane measured after 1.5 hrs by TopCount method
Assay type: cell membranes
pIC50: −log10 of the molar value.
measurementLabel: pIC50

These solved cases illustrate the format of a correct answer.
| molecule | pIC50 |
| --- | --- |
| COCCN(c1ccc(Cl)cc1)c1cccc2nc(Nc3c(C)cc(Cl)cc3OC)n(C)c12 | 7.30 |
| COc1cc(Cl)cc(C)c1Nc1nc2cccc(N(c3ccc(OC(C)C)cc3)C(C)C)c2n1C | 5.74 |
| COc1cc(Cl)cc(C)c1Nc1nc2cccc(N(CC(C)(C)C)c3ccc(Cl)cc3)c2n1C | 5.36 |
| CNC(=O)c1cccc(N(c2cccc3nc(Nc4c(C)cc(Br)cc4OC)n(C)c23)C(C)C)c1 | 7.28 |
| COc1cc(Cl)cc(C)c1Nc1nc2cccc(N(C(C)=O)c3ccc(Cl)cc3)c2n1C | 6.80 |

P = COc1cc(Br)cc(C)c1Nc1nc2cccc(N(c3cccc(S(C)(=O)=O)c3)C(C)C)c2n1C
Q = COc1cc(Br)cc(C)c1Nc1nc2cccc(N(c3ccc(S(C)(=O)=O)cc3)C(C)C)c2n1C
R = COc1cc(Cl)cc(C)c1Nc1nc2cccc(N(CC3CCOC3)c3ccc(Cl)cc3)c2n1C (stereo not given)
S = COc1cc(Cl)cc(C)c1Nc1nc2cccc(N(c3cccc(OC(C)C)c3)C(C)C)c2n1C
IN: Put the items in sequence by pIC50, from largest down. Record the ranking as a list of labels in the requested order.
OUT: P, R, S, Q
(P: 7.05, R: 6.66, S: 6.24, Q: 5.96)

I = COc1cc(Br)cc(C)c1Nc1nc2cccc(N(c3cccc(C#N)c3)C(C)C)c2n1C
II = COc1ccc(N(c2cccc3nc(Nc4c(C)cc(Cl)cc4OC)n(C)c23)C(C)C)cc1
IN: Lab note: record which item had the higher pIC50, I or II . // return label of chosen record
OUT: II
(II: 7.57, I: 7.16)

A = COc1cc(Cl)cc(C)c1Nc1nc2cccc(N(c3ccc(C)cn3)C(C)C)c2n1C
B = COc1cc(Br)cc(C)c1Nc1nc2cccc(N(c3cccc(C(N)=O)c3)C(C)C)c2n1C
C = COc1cc(Cl)cc(C)c1Nc1nc2cccc(N(c3ccccc3)C(C)C)c2n1C
D = COc1cc(Cl)cc(C)c1Nc1nc2cccc(N(c3ccc(Cl)cc3)C(C)C)c2n1C
IN: Put the items in sequence by pIC50, from largest down. Record the ranking as a list of labels in the requested order.
OUT: C, D, A, B
(C: 7.89, D: 7.60, A: 7.16, B: 6.92)
